test: Oral bioavailability in dog; assay type: ADME, organism-based, Canis lupus familiaris; settings: in vivo
REPORTED ENDPOINT: bioavailability (%)
Number in %, nothing else.

Which measured bioavailability value corresponds to CNC[C@H](CC1CCCCC1)NC(=O)N1CCC[C@@H]([C@@](O)(CCCCOC)c2cccc(Cl)c2)C1.O=C(O)/C=C/C(=O)O ?
38

====

assay: Volume of distribution at steady state in rat at 10 mg/kg, po and 2 mg/kg, iv; assay type: ADME, organism-based; conditions: in vivo, read-out: Vdss
REPORTED ENDPOINT: Vd (L/kg)
Entry rule: numbers only, all in L/kg.

Would you kindly share the measured Vd for COCCCC[C@@](O)(c1ccccc1)[C@@H]1CCCN(C(=O)N[C@H](CN)CC2CCCCC2)C1.O=C(O)/C=C/C(=O)O ?
56

Entry under review: CCOCCCO[C@@H](c1ccccc1)[C@@H]1CCCN(C(=O)N[C@H](CNC)CC2CCCCC2)C1.O=C(O)/C=C/C(=O)O . Reported Vd?
22

Quick one: Vd of CNC[C@H](CC1CCCCC1)NC(=O)N1CCC[C@@H]([C@@](O)(CCCCOC)c2cccc(Cl)c2F)C1.O=C(O)/C=C/C(=O)O ?
16

What value of Vd has been reported for the following compound? CCOCCCC[C@@](O)(c1ccccc1)[C@@H]1CCCN(C(=O)N[C@H](CNC)CC2CCCCC2)C1.O=C(O)/C=C/C(=O)O
55

====

experiment: Half life in rat at 10 mg/kg, po and 2 mg/kg, iv; format: ADME, organism-based; details: in vivo
REPORTED ENDPOINT: half-life (h)
Note: unit h is implicit; provide only the numeric part.

Entry under review: CNC[C@H](CC1CCCCC1)NC(=O)N1CCC[C@@H]([C@@](O)(CCCCOC)c2cccc(F)c2)C1.O=C(O)/C=C/C(=O)O . Reported half-life?
9.6

Look up half-life: COCCCC[C@@](O)(c1ccccc1)[C@@H]1CCCN(C(=O)N[C@H](CN)CC2CCCCC2)C1.O=C(O)/C=C/C(=O)O
5.1

Which measured half-life value corresponds to CNC[C@H](CC1CCCCC1)NC(=O)N1CCC[C@@H]([C@@](O)(CCCCOC)c2cccc(Cl)c2F)C1.O=C(O)/C=C/C(=O)O ?
8

// lookup half-life for CCOCCCC[C@@](O)(c1ccccc1)[C@@H]1CCCN(C(=O)N[C@H](CNC)CC2CCCCC2)C1.O=C(O)/C=C/C(=O)O
8.7

====

Please provide measured pIC50 for the entries that follow.
Biological target: UniProt P00797
Sequence (P00797 whole entry): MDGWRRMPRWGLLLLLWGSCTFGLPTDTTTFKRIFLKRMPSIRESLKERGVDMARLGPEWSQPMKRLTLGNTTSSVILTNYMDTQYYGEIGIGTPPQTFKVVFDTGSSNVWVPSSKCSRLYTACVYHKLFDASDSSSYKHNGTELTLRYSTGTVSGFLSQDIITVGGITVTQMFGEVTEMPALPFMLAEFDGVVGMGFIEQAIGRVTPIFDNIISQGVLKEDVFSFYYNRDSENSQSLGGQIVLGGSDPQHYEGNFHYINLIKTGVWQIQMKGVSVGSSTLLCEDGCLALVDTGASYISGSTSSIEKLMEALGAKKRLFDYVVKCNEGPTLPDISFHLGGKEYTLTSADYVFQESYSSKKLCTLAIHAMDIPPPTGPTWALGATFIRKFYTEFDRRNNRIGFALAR
Assay: Inhibition of human recombinant renin in presence of human plasma by competitive radioimmunoassay
Format: cell-free
# pIC50: negative log10 of molar concentration; output just the value

Request the reported pIC50 associated with CNC[C@H](CC1CCCCC1)NC(=O)N1CCC[C@@H]([C@@](O)(CCCCOC)c2ccccc2Cl)C1
6.82

Could you share which pIC50 value was measured for COCCCC[C@@](O)(c1cccc(Cl)c1)[C@@H]1CCCN(C(=O)N[C@H](CNCC(F)(F)F)CC2CCCCC2)C1 ?
5.85

What value of measured pIC50 is listed for CCOCCCO[C@@H](c1cccc(Cl)c1)[C@@H]1CCCN(C(=O)N[C@H](CN)CC2CCCCC2)C1 ?
6.72

Return reported pIC50; argument: CNC[C@H](CC1CCCCC1)NC(=O)N1CCC[C@@H]([C@@](O)(CCCCOC)c2cccc(Cl)c2)C1
7.89

====

test: AUC (0 to t) in rat at 10 mg/kg, po and 2 mg/kg, iv; assay type: ADME, organism-based; conditions: plasma
Assign AUC(0-t) to each entry below.

If you can, please state the reported AUC(0-t) value of COCCCC[C@@](O)(c1ccccc1)[C@@H]1CCCN(C(=O)N[C@H](CN)CC2CCCCC2)C1.O=C(O)/C=C/C(=O)O .
221 ng·h/mL

# query: AUC(0-t) of entry CNC[C@H](CC1CCCCC1)NC(=O)N1CCC[C@@H]([C@@](O)(CCCCOC)c2ccccc2)C1.O=C(O)/C=C/C(=O)O
547 ng·h/mL

Which AUC(0-t) value is on record for CNC[C@H](CC1CCCCC1)NC(=O)N1CCC[C@@H]([C@@](O)(CCCCOC)c2cccc(F)c2)C1.O=C(O)/C=C/C(=O)O ?
433 ng·h/mL

Would you mind telling me what AUC(0-t) value was observed for CCOCCCC[C@@](O)(c1ccccc1)[C@@H]1CCCN(C(=O)N[C@H](CNC)CC2CCCCC2)C1.O=C(O)/C=C/C(=O)O ?
745 ng·h/mL

====

assay: Cmax in rat at 10 mg/kg, po and 2 mg/kg, iv; assay type: ADME, organism-based; conditions: in vivo
Please go through the items and note down their Cmax.
Kindly write the number and append the unit.

So what does the record say about Cmax for CNC[C@H](CC1CCCCC1)NC(=O)N1CCC[C@@H]([C@@](O)(CCCCOC)c2cccc(F)c2)C1.O=C(O)/C=C/C(=O)O ?
83 ng/mL

# input compound: COCCCC[C@@](O)(c1ccccc1)[C@@H]1CCCN(C(=O)N[C@H](CN)CC2CCCCC2)C1.O=C(O)/C=C/C(=O)O ; wanted: its Cmax
28 ng/mL

Form field: reported Cmax of CCOCCCO[C@@H](c1ccccc1)[C@@H]1CCCN(C(=O)N[C@H](CNC)CC2CCCCC2)C1.O=C(O)/C=C/C(=O)O
91 ng/mL

May I ask what Cmax has been recorded for CCOCCCC[C@@](O)(c1ccccc1)[C@@H]1CCCN(C(=O)N[C@H](CNC)CC2CCCCC2)C1.O=C(O)/C=C/C(=O)O ?
135 ng/mL

====

assay: Cmax in rat at 10 mg/kg, po and 2 mg/kg, iv; assay type: ADME, organism-based; details: in vivo
Please provide measured Cmax for the entries that follow.
Report only the number, with the unit ng/mL understood.

Please give the measured Cmax for this compound: CNC[C@H](CC1CCCCC1)NC(=O)N1CCC[C@@H]([C@@](O)(CCCCOC)c2cccc(Cl)c2F)C1.O=C(O)/C=C/C(=O)O
28

Request the reported Cmax associated with CNC[C@H](CC1CCCCC1)NC(=O)N1CCC[C@@H]([C@@](O)(CCCCOC)c2ccccc2)C1.O=C(O)/C=C/C(=O)O
101

Give its Cmax value. Item: COCCCOc1cc(C[C@@H](C[C@H](N)[C@@H](O)C[C@H](C(=O)NCC(C)(C)C(N)=O)C(C)C)C(C)C)ccc1OC.COCCCOc1cc(C[C@@H](C[C@H](N)[C@@H](O)C[C@H](C(=O)NCC(C)(C)C(N)=O)C(C)C)C(C)C)ccc1OC.O=C(O)/C=C/C(=O)O [ALISKIREN FUMARATE]
4

Quick one: Cmax for CNC[C@H](CC1CCCCC1)NC(=O)N1CCC[C@@H]([C@@](O)(CCCCOC)c2cccc(Cl)c2)C1.O=C(O)/C=C/C(=O)O ?
73

====

molecular target: Renin (Homo sapiens); assay: Inhibition of human recombinant renin
pIC50: −log10 of the molar value.
The threshold is inclusive: pIC50 of exactly 7 counts as True; values below receive False.

Does the molecule CCOCCCO[C@@H](c1ccccc1)[C@@H]1CCCN(C(=O)N[C@H](CNC)CC2CCCCC2)C1 have recorded pIC50 that is 7 or more?
True

Threshold query (pIC50 >= 7) on CCOCCCC[C@@](O)(c1ccccc1)[C@@H]1CCCN(C(=O)N[C@H](CN)CC2CCCCC2)C1
True

Check if pIC50 >= 7 (inclusive). Item: CNC[C@H](CC1CCCCC1)NC(=O)N1CCC[C@@H]([C@@](O)(CCCCOC)c2cccc(C(F)(F)F)c2)C1
True

Given CNC[C@H](CC1CCCCC1)NC(=O)N1CCC[C@@H]([C@@H](OCCCO)c2cccc(Cl)c2)C1 , state whether its pIC50 is at least 7.
False

Determine whether this molecule has pIC50 no lower than 7: CNC[C@H](CC1CCCCC1)NC(=O)N1CCC[C@@H]([C@@H](OCCCOC)c2cccc(Cl)c2Cl)C1
False

// inclusive: pIC50 at least 7? input: CNC[C@H](CC1CCCCC1)NC(=O)N1CCC[C@@H]([C@@H](OCCCOC)c2cccc(F)c2)C1
True

Does the reported pIC50 for CNC[C@H](CC1CCCCC1)NC(=O)N1CCC[C@@H]([C@@](O)(CCCCOC)c2cc(F)cc(Cl)c2)C1 fall at or above the 7 mark?
True

Decide: is the reported value of pIC50 for CNC[C@H](CC1CCCCC1)NC(=O)N1CCC[C@@H]([C@@](O)(CCCCOC)c2cccc(F)c2F)C1 equal to or greater than 7?
True

pIC50 >= 7 for CNC[C@H](CC1CCCCC1)NC(=O)N1CCC[C@@H]([C@@](O)(CCCCOC)c2cccc(C)c2)C1 ?
True

Identify whether the reported pIC50 of the following molecule is 7 or greater: CCNC[C@H](CC1CCCCC1)NC(=O)N1CCC[C@@H]([C@@](O)(CCCCOC)c2cccc(Cl)c2)C1
True

Is pIC50 for CNC[C@H](CC1CCCCC1)NC(=O)N1CCC[C@@H]([C@@](O)(CCCCOC)c2cccc(C#N)c2)C1 at or above 7?
True

Identify whether the reported pIC50 of the following molecule is 7 or greater: CCOCCCO[C@@H](c1ccccc1)[C@@H]1CCCN(C(=O)N[C@H](CN)CC2CCCCC2)C1
True

Is it the case that COCCCO[C@@H](c1ccccc1)[C@@H]1CCCN(C(=O)N[C@H](CN)CC2CCCCC2)C1 has pIC50 reaching or exceeding 7?
False

Is reported pIC50 greater than or equal to 7 here: CCOCCCO[C@@H](c1cccc(F)c1)[C@@H]1CCCN(C(=O)N[C@H](CNC)CC2CCCCC2)C1
True

Where these numbers come from: ChEMBL document CHEMBL1136958
